Reference for the values: patent US4565814A

- assay-notes: in vivo
- Format: in vivo
- experimental-conditions: mouse, in vivo, ip; Table 9; i.p.; mortality noted for 24 hours; read-out: Toxicity, intraperitoneal administration, LD50
measurement-label: LD50 at 24 h

Query: Output LD50 at 24 h of N#Cc1cc(-c2ccsc2)nnc1NCCN1CCOCC1
Reply: > 300 mg/kg
